readoutType: melting point

Use these answered entries as a reference point.
>>> result("CC(C)CC(C(=O)O)c1cc(Cl)c(-c2ccc(C(F)(F)F)cc2)c(OCC2CC2)c1 (stereo not drawn)")
"115 to 116 °C"
>>> result("CC(C)CC(C(=O)O)c1cc(-c2ccc(C(F)(F)F)cc2)c(OCC2CC2)c(C(F)(F)F)c1 (stereo not drawn)")
"148 to 149 °C"

State its melting point for this compound: CC(C)CC(C(=O)O)c1cc(OCC2CC2)c(-c2ccc3nonc3c2)cc1F (stereo not drawn)
110 to 111 °C

State its melting point for this compound: CC(C)CC(C(=O)O)c1cc(Cl)c(-c2ccc(Cl)cc2)c(OCC2CC2)c1 (stereo not drawn)
52 to 53 °C

State its melting point for this compound: CC(C)CC(C(=O)O)c1cc(OCC2CC2)c(-c2ccc(C(F)(F)F)cc2)cc1F (stereo not drawn)
110 to 111 °C

State its melting point for this compound: CC(C)CC(C(=O)O)c1cc(Cl)c(-c2ccc(Cl)c(Cl)c2)c(OCC2CC2)c1 (stereo not drawn)
118 to 119 °C

The origin of these recorded values is patent US8664249B2.
